- test: Cytotoxicity against human HEK cells after 72 hrs by alamar blue assay
- Assay type: cell-based
- experimental_context: HEK293, 72 h
pIC50: −log10 of the molar value.
test_readout: pIC50

| compound | value |
| --- | --- |
| CCC(C)C[C@@H](C)[C@@H](O)[C@@H](C)C(=O)N[C@@H](CC(N)=O)C(=O)N[C@@H](CCCNC(=N)N)[C@@H](O)[C@@H](O)C(=O)NC(C(=O)N[C@H]1C(=O)N[C@H]([C@H](C)O)C(=O)N[C@H](CCCNC(=N)N)C(=O)N[C@@H](CC(C)C)C(=O)N(C)[C@@H](CCC(N)=O)C(=O)N[C@H]([C@H](OC)c2ccc(O)cc2)C(=O)N2CCCC[C@H]2C(=O)O[C@@H]1C)C(C)C(C)C(N)=O (relative stereo) | 7.06 |
| CO[C@H](c1ccc(O)cc1)[C@H]1NC(=O)[C@H](CCC(=O)O)N(C)C(=O)[C@H](CC(C)C)NC(=O)[C@@H](CCCNC(=N)N)NC(=O)[C@@H]([C@H](C)O)NC(=O)[C@H](NC(=O)C(NC(=O)[C@H](O)[C@H](O)[C@H](CCCNC(=N)N)NC(=O)[C@H](CC(N)=O)NC(=O)[C@H](C)[C@H](O)[C@H](C)CC(C)C)C(C)C(C)C(N)=O)[C@@H](C)OC(=O)[C@@H]2CCCCN2C1=O (relative stereo) | 6.80 |
| CO[C@H](c1ccc(O)cc1)[C@H]1NC(=O)[C@H](CCC(N)=O)N(C)C(=O)[C@H](CC(C)C)NC(=O)[C@@H](CCCNC(=N)N)NC(=O)[C@@H]([C@H](C)O)NC(=O)[C@H](NC(=O)C(NC(=O)[C@H](O)[C@H](O)[C@H](CCCNC(=N)N)NC(=O)[C@H](CC(N)=O)NC(=O)[C@H](C)[C@H](O)[C@H](C)CC(C)C)C(C)C(C)C(N)=O)[C@@H](C)OC(=O)[C@@H]2CCCCN2C1=O (relative stereo) | 6.70 |
